Biological target: hGLP-1R (Homo sapiens, UniProt P43220)
Assay: cell-based or functional assay
Where no end group is shown, it is not given here. Side-chain parts run from the residue outwards. [ ]: non-standard residue; d: D form. The star is where a group is joined. αMePhe(2-F) = C[C@](N)(Cc1ccccc1F)C(=O)O; C14 diacid = O=C(O)CCCCCCCCCCCCC(=O)*; αMeY = C[C@](N)(Cc1ccc(O)cc1)C(=O)O; αMeL = CC(C)C[C@](C)(N)C(=O)O; Orn = NCCC[C@H](N)C(=O)O; AEEA = NCCOCCOCC(=O)O; Aib = CC(C)(N)C(=O)O
Overview of reported cAMP Emax across a group of binders:
Numeric answer only, unit % assumed.

Recorded results for 3 binders are shown here.
YXEGTXTSDVXIXLDXKAQXKFIXXLIEGGPSSGAPPPS (Y-Aib-EGT-αMeF(2F)-TSDV-Aib-I-αMeL-LD-Orn-K((2-[2-(2-Amino-ethoxy)-ethoxy]-acetyl)-(γ-Glu)-CO-(CH2)12-CO2H)AQ-Aib-K((2-[2-(2-Amino-ethoxy)-ethoxy]-acetyl)-(γ-Glu)-CO-(CH2)12-CO2H)FI-(D-Glu)-αMeY-LIEGGPSSGAPPPS-NH2) [Example 398] = 101
YXEGTXTSDXXIXLDXKAQXEFIXXLIEGGPSSGAPPPSK (Y-Aib-EGT-αMeF(2F)-TSD-4Pal-Aib-I-αMeL-LD-Orn-K((2-[2-(2-Amino-ethoxy)-ethoxy]-acetyl)2-(γ-Glu)-CO-(CH2)12-CO2H)AQ-Aib-EFI-(D-Glu)-αMeY-LIEGGPSSGAPPPSK((2-[2-(2-Amino-ethoxy)-ethoxy]-acetyl)2-(γ-Glu)-CO-(CH2)12-CO2H)-NH2) [Example 359] = 104
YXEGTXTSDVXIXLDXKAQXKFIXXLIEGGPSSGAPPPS (Y-Aib-EGT-αMeF(2F)-TSDV-Aib-I-αMeL-LD-Orn-K((2-[2-(2-Amino-ethoxy)-ethoxy]-acetyl)2-(10-(4-carboxyphenoxy)decanoyl))AQ-Aib-K((2-[2-(2-Amino-ethoxy)-ethoxy]-acetyl)2-(10-(4-carboxyphenoxy)decanoyl))FI-(D-Glu)-αMeY-LIEGGPSSGAPPPS-NH2) [Example 394] = 101

Entry under test: Y[Aib]EGT[αMePhe(2-F)]TSDV[Aib]I[αMeL]LD[Orn]K([AEEA-AEEA-C14 diacid])AQ[Aib]EFI[dE][αMeY]LIK([AEEA-AEEA-C14 diacid])GGPSSGAPPPS-NH2 [Example 389] . Its cAMP Emax was 92.4

So, YXEGTXTSDKXIXLDGKAQXEFIXXLIEGGPSSGAPPPS (Y-Aib-EGT-αMeF(2F)-TSDK((2-[2-(2-Amino-ethoxy)-ethoxy]-acetyl)2-(γ-Glu)-CO-(CH2)10-CH3)-Aib-I-αMeL-LDGK((2-[2-(2-Amino-ethoxy)-ethoxy]-acetyl)2-(γ-Glu)-CO-(CH2)10-CH3)AQ-Aib-EFI-(D-Glu)-αMeY-LIEGGPSSGAPPPS-NH2) [Example 445] ? Its cAMP Emax was 103
